target: [Pyruvate dehydrogenase (acetyl-transferring)] kinase isozyme 1, mitochondrial (Homo sapiens)
Sequence (Q15118 whole entry): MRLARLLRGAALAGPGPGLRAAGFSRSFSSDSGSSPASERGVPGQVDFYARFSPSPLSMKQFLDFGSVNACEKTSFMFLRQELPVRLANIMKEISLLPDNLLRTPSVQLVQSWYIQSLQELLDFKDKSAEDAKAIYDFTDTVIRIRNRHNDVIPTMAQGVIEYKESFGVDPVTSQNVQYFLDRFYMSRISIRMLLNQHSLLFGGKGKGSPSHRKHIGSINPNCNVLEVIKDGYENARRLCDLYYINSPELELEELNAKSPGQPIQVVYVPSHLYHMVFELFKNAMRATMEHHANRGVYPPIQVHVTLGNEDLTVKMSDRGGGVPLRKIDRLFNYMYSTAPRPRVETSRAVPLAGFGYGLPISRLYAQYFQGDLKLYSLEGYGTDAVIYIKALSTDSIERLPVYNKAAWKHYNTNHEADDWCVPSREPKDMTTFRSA
QUANTITY KIND: IC50 (nM)

CNc1nccc(-c2ccc(N(Cc3ccccc3)C(=O)c3ccc(O)cc3O)cc2)n1 : 10000
Cc1cc(C(=O)N(Cc2ccsc2)c2ccc(C(=O)N(C)C)cc2)c(O)cc1O : 100
CN(Cc1cccc2cccnc12)C(=O)c1ccc(N(Cc2ccccc2)C(=O)c2ccc(O)cc2O)cc1 : 100
Cc1cc2ccccc2nc1-c1ccc(N(Cc2ccsc2)C(=O)c2ccc(O)cc2O)cc1 : 100
O=C(c1ccc(O)cc1O)N(Cc1ccccc1)c1ccc(-c2nc(Cl)c3c(n2)CCSC3)cc1 : 10
CNS(=O)(=O)c1cnc(-c2ccc(N(Cc3ccccc3)C(=O)c3ccc(O)cc3O)cc2)c(C)c1 : 100
CN(Cc1cccc2ncccc12)C(=O)c1ccc(N(Cc2cccnc2)C(=O)c2ccc(O)cc2O)cc1 : 100
CC(=O)N1CCN(S(=O)(=O)c2cnc(-c3ccc(N(Cc4ccccc4)C(=O)c4ccc(O)cc4O)cc3)c(C)c2)CC1 : 10
COc1ccc(CN(C)C(=O)c2ccc(N(Cc3cccc(C)c3)C(=O)c3cc(Cl)c(O)cc3O)cc2)cc1 : 1000
Cc1ncc(C)c(-c2ccc(N(Cc3ccccc3)C(=O)c3ccc(O)cc3O)cc2)n1 : 100
COc1cnc(-c2ccc(N(Cc3cccnc3)C(=O)c3ccc(O)cc3O)cc2)cc1OC : 100
COc1cc2cc(Cl)ccc2nc1-c1ccc(N(Cc2ccsc2)C(=O)c2ccc(O)cc2O)cc1 : 100
Cc1cc(-c2ccc(N(Cc3cccnc3)C(=O)c3ccc(O)cc3O)cc2)nnc1Cl : 1000
Cc1cc(S(=O)(=O)N2CCOCC2)cnc1-c1ccc(N(Cc2cccnc2)C(=O)c2ccc(O)cc2O)cc1 : 10
O=C(c1ccc(O)cc1O)N(Cc1ccsc1)c1ccc(-c2ccnc3ccccc23)cc1 : 1000
Cc1nccnc1-c1ccc(N(Cc2cccnc2)C(=O)c2ccc(O)cc2O)cc1 : 100
CN(Cc1ccc(OC(F)(F)F)cc1)C(=O)c1ccc(N(Cc2ccsc2)C(=O)c2ccc(O)cc2O)cc1 : 1000
Cc1ccc(CN(C(=O)c2ccc(O)cc2O)c2ccc(-c3nc4ccccc4cc3C)cc2)cc1 : 10

Source: ChEMBL document CHEMBL3727364
